Target: FYN (Homo sapiens, UniProt P06241)
Construct: purchased Caliper Life Sciences
Sequence (P06241 whole entry, species assumed): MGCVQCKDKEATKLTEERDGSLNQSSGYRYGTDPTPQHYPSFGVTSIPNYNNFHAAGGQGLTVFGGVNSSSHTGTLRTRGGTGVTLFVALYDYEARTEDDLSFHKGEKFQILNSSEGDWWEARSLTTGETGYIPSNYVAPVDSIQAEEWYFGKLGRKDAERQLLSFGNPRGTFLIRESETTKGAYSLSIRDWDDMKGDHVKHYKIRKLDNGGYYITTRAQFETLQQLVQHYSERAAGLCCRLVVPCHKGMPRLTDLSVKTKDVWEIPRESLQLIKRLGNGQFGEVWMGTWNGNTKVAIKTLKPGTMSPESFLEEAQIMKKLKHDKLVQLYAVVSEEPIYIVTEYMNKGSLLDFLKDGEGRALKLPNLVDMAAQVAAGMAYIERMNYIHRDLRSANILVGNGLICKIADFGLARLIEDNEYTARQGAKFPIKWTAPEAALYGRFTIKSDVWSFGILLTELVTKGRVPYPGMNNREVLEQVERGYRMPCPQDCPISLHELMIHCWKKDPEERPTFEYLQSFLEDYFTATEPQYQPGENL
Assay: Desktop Profiler kinase panel, FYN
Type: biochemical
Details: 10 micromolar concentration of the compound; read-out: Percent Inhibition FYN
readout.name: inhibition at 10 µM

Asked: Note down inhibition at 10 µM recorded for COc1cccc(CNc2ccnc3[nH]c(=O)c4ccccc4c23)c1
Given back: 50 to 70%

Asked: Dear colleague, please send me the reported inhibition at 10 µM for O=c1[nH]c2nccc(Nc3ccccc3)c2c2ccccc12 when you can.
Given back: > 90%

Asked: Provide inhibition at 10 µM value for the following molecule: Clc1nc2nccc(Nc3ccccc3)c2c2ccccc12
Given back: > 90%

Asked: Provide measured inhibition at 10 µM value, entry: O=C(Nc1ccc(Nc2ccnc3[nH]c(=O)c4ccccc4c23)cc1)c1ccccc1
Given back: 50 to 70%

Asked: Identify measured inhibition at 10 µM associated with COc1ccccc1Nc1ccnc2[nH]c(=O)c3ccccc3c12
Given back: 50 to 70%

Asked: Answer with the recorded inhibition at 10 µM for the molecule listed here: COc1ccccc1Nc1ccc2c(=O)[nH]c3ncccc3c2c1
Given back: 50 to 70%

Asked: // fetch inhibition at 10 µM given entry COc1ccc(CCNc2ccc3c(=O)[nH]c4ncccc4c3c2)cc1
Given back: 50 to 70%

Asked: Find the measured inhibition at 10 µM of O=c1[nH]c2nccc(Nc3ccc(Oc4ccccc4)cc3)c2c2ccccc12 and report it.
Given back: 70 to 90%

====

Biological target: LCK (Homo sapiens, UniProt P06239)
Construct: purchased Caliper Life Sciences
Sequence (P06239 whole entry, species assumed): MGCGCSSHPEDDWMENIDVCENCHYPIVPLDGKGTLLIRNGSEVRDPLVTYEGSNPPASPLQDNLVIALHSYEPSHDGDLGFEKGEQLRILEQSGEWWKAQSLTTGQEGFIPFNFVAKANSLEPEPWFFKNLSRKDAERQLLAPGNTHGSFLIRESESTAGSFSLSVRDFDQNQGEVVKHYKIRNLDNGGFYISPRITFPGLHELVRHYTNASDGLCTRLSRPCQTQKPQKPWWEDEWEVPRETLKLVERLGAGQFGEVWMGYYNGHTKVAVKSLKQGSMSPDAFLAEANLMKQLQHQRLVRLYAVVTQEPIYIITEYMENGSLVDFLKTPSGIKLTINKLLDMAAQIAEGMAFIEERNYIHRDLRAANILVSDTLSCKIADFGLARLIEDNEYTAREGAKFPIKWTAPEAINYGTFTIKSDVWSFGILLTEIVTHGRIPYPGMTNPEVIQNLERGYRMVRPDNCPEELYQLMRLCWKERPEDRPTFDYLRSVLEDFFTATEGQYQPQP
Assay: Desktop Profiler kinase panel, LCK
Format: biochemical
Details: 10 micromolar concentration of the compound; read-out: Percent Inhibition LCK
readout.name: inhibition at 10 µM

Asked: Report measured inhibition at 10 µM; entry is Clc1nc2nccc(Nc3ccccc3)c2c2ccccc12
Given back: 70 to 90%

Asked: Fill in reported inhibition at 10 µM for this entry: COc1ccc(Nc2ccnc3[nH]c(=O)c4ccccc4c23)cc1
Given back: 70 to 90%

Asked: Identify the reported inhibition at 10 µM for the following entry. O=c1[nH]c2nccc(Nc3ccccc3)c2c2ccccc12
Given back: 70 to 90%

Asked: For O=c1[nH]c2ncccc2c2cc(Nc3cccc(F)c3)ccc12 , write its inhibition at 10 µM.
Given back: > 90%

Asked: Entry O=c1[nH]c2ncc(NCc3ccccc3)cc2c2ccccc12 needs its inhibition at 10 µM filled in; supply it.
Given back: 50 to 70%

Asked: In one line, give reported inhibition at 10 µM of the entry COc1ccccc1Nc1ccnc2[nH]c(=O)c3ccccc3c12 .
Given back: 50 to 70%

Asked: Output measured inhibition at 10 µM for this item: CC(=O)Nc1ccc(Oc2ccc3c(=O)[nH]c4ncccc4c3c2)cc1
Given back: > 90%

====

Biological target: GST-Aurora A (Homo sapiens, UniProt O14965)
Construct: N-terminal GST fusion with full length Aurora A (1-403 amino acids)
Experiment: Aurora A IC50, Caliper LC3000 mobility shift assay
Details: LC3000 method; 15 uM ATP (the KM value); read-out: Aurora Kinase A Activity (IC50)
pIC50: −log10 of the molar value.
So I've got a bunch of compounds here, and I need their pIC50 values.

Asked: Please look at this compound and report its pIC50: O=C(Nc1ccc(Nc2ccnc3[nH]c(=O)c4ccc(F)cc4c23)cc1)c1ccc(F)cc1C(F)(F)F
Given back: > 7.96

Asked: # return recorded pIC50 for input O=C(Nc1ccc(Nc2ccnc3[nH]c(=O)c4c(C(=O)NCCCN5CCOCC5)cccc4c23)cc1)c1ccccc1
Given back: > 7.96

Asked: Report pIC50 for Clc1nc2nccc(Nc3ccccc3)c2c2ccccc12
Given back: < 7.00

Asked: Specify measured pIC50 for O=C(Nc1ccc(Nc2ccnc3[nH]c(=O)c4ccccc4c23)cc1)C(F)(F)F .
Given back: < 7.00

Asked: Look up and report measured pIC50 for this entry: COc1cc2c(=O)[nH]c3nccc(Nc4ccc(NC(=O)c5ccc(F)cc5C(F)(F)F)cc4)c3c2cc1OC
Given back: > 7.96

Asked: Let me know recorded pIC50 for CN(C)CCNC(=O)c1ccc2c(=O)[nH]c3nccc(Nc4ccc(NC(=O)c5ccc(F)cc5C(F)(F)F)cc4)c3c2c1 , thanks.
Given back: > 7.96

Asked: Kindly indicate its recorded pIC50. Item: Cc1ccc(C(=O)Nc2ccc(Nc3ccnc4[nH]c(=O)c5ccccc5c34)cc2)cc1
Given back: > 7.96

Asked: Output pIC50 of Cc1cc(Nc2ccnc3[nH]c(=O)c4ccccc4c23)n(CC(=O)Nc2ccccc2)n1
Given back: < 7.00

Asked: Indicate the recorded pIC50 value for this compound: O=c1[nH]c2ncccc2c2cc(NCc3ccccc3[N+](=O)[O-])ccc12
Given back: < 7.00

Asked: Input O=C(NCCO)c1ccc2c(=O)[nH]c3nccc(Nc4ccc(NC(=O)c5ccccc5)cc4)c3c2c1 , output reported pIC50.
Given back: 7.00 to 7.96

Asked: Find the measured pIC50 of O=c1[nH]c2nccc(Nc3ccc(OCc4cccc(F)c4)cc3)c2c2ccccc12 and report it.
Given back: 7.00 to 7.96

Asked: Name the recorded pIC50 of the item O=C(Nc1ccc(Nc2ccnc3[nH]c(=O)c4ccccc4c23)cc1)C1(c2ccccc2)CC1 in your answer.
Given back: 7.00 to 7.96

====

Biological target: AurA (Homo sapiens)
Construct: purchased Caliper Life Sciences
Sequence (O14965 1-403): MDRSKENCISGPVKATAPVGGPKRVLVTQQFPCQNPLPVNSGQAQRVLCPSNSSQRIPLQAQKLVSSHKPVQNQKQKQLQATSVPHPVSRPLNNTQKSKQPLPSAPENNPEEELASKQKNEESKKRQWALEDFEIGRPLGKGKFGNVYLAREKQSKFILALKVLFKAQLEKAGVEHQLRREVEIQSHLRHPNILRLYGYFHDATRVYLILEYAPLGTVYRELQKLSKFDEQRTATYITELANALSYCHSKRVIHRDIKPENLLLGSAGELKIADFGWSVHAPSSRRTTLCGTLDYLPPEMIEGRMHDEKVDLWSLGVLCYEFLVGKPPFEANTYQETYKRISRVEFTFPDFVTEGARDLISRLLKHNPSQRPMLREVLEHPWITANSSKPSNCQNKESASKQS
Assay: Desktop Profiler kinase panel, AurA
Format: biochemical
Details: 10 micromolar concentration of the compound; read-out: Percent Inhibition AurA
readout.name: inhibition at 10 µM

Asked: For AurA (Homo sapiens), give inhibition at 10 µM of the listed molecule: COc1ccc(CCNc2ccc3c(=O)[nH]c4ncccc4c3c2)cc1
Given back: > 90%

Asked: Answer with inhibition at 10 µM of O=c1[nH]c2ncc(Cl)cc2c2ccccc12 measured for AurA (Homo sapiens).
Given back: 50 to 70%

Asked: Provide AurA (Homo sapiens) inhibition at 10 µM reading for CC(=O)Nc1ccc(Oc2ccc3c(=O)[nH]c4ncccc4c3c2)cc1 .
Given back: > 90%

Asked: // fetch inhibition at 10 µM for O=c1[nH]c2ncccc2c2cc(Cl)ccc12 ; system: AurA (Homo sapiens)
Given back: 50 to 70%

Asked: Look up AurA (Homo sapiens) data: inhibition at 10 µM of O=c1[nH]c2ncccc2c2cc(N3CCOCC3)ccc12 , then report it.
Given back: 70 to 90%

Asked: Specify the recorded inhibition at 10 µM for O=c1[nH]c2ncccc2c2cc(Nc3cccc(F)c3)ccc12 , system: AurA (Homo sapiens).
Given back: > 90%

Asked: Jot down inhibition at 10 µM (AurA (Homo sapiens)) of COc1cccc(CNc2ccnc3[nH]c(=O)c4ccccc4c23)c1 .
Given back: 50 to 70%

Asked: Report inhibition at 10 µM under test system AurA (Homo sapiens) for O=c1[nH]c2nccc(Nc3ccc(Oc4ccccc4)cc3)c2c2ccccc12 .
Given back: 50 to 70%

Asked: State inhibition at 10 µM on AurA (Homo sapiens). Entry: COc1ccc(CNc2ccc3c(=O)[nH]c4ncccc4c3c2)cc1
Given back: 70 to 90%

Asked: Under AurA (Homo sapiens): report inhibition at 10 µM of COc1ccc(Nc2ccnc3[nH]c(=O)c4ccccc4c23)cc1 .
Given back: 70 to 90%

Asked: Look up AurA (Homo sapiens) data: inhibition at 10 µM of COc1ccccc1CNc1cnc2[nH]c(=O)c3ccccc3c2c1 , then report it.
Given back: 50 to 70%

Asked: Give inhibition at 10 µM; test system AurA (Homo sapiens); molecule COc1ccc(CNc2cnc3[nH]c(=O)c4ccccc4c3c2)cc1
Given back: 50 to 70%

Asked: Give inhibition at 10 µM for this entry on AurA (Homo sapiens): COc1cccc(CNc2cnc3[nH]c(=O)c4ccccc4c3c2)c1
Given back: 50 to 70%

====

Target: PKA (Homo sapiens, UniProt P17612)
Construct: purchased Caliper Life Sciences
Assay: Desktop Profiler kinase panel, PKA
Assay type: biochemical
Settings: 10 micromolar concentration of the compound; read-out: Percent Inhibition PKA
readout.name: inhibition at 10 µM

Asked: Determine its reported inhibition at 10 µM: O=c1[nH]c2ncccc2c2cc(Nc3cccc(F)c3)ccc12
Given back: > 90%

Asked: Return reported inhibition at 10 µM. Input molecule: O=c1[nH]c2nccc(Cl)c2c2ccccc12
Given back: 50 to 70%

Asked: Query inhibition at 10 µM for COc1ccc(Nc2ccnc3[nH]c(=O)c4ccccc4c23)cc1
Given back: 50 to 70%
